experimental-details: photoluminescence quantum yield (fraction); solvent given as SMILES
assay-setup: in O
reported-endpoint: photoluminescence quantum yield
Reply briefly: the number, and no unit.

compound=O=C([O-])c1ccccc1C1=c2cc3c4c(c2Oc2c1cc1c5c2CCCN5CCC1)CCC[N+]=4CCC3 reported_endpoint="photoluminescence quantum yield" assay_value=0.99
compound=c1coc(-c2nc3ccccc3[nH]2)c1 reported_endpoint="photoluminescence quantum yield" assay_value=0.96
compound="CC/[NH+]=c1\\cc2oc3cc(NCCC(=O)NCCCCC(NC(C)=O)C(=O)OC)c4ccccc4c3nc-2cc1C (stereo not given)" reported_endpoint="photoluminescence quantum yield" assay_value=0.46
compound=CCCN1/C(=C/C=C(/C=C/C2=[N+](CCC)c3ccccc3C2(C)C)c2cc[n+](C)cc2)C(C)(C)c2ccccc21 reported_endpoint="photoluminescence quantum yield" assay_value=0.02

Enquiry: Which photoluminescence quantum yield is reported for this compound? CC[N+]1(CC)CN2C(=N1)C(C(=O)O)=Cc1cc(OC)c(OC)cc12
Return: 0.859

---

experimental-details: photoluminescence quantum yield (fraction); solvent given as SMILES
assay-setup: in O=P(c1ccccc1)(c1ccccc1)c1ccc2oc3ccc(P(=O)(c4ccccc4)c4ccccc4)cc3c2c1
# photoluminescence quantum yield listing for each entry below
Reply briefly: the number, and no unit.

Example cases with answers are listed next.
smi=c1ccc(-c2nc(-c3ccccc3)nc(-c3cc(-n4c5ccccc5c5ccccc54)c(-n4c5ccccc5c5ncccc54)c(-n4c5ccccc5c5ccccc54)c3)n2)cc1 reported_endpoint="photoluminescence quantum yield" assay_value=0.79
smi=Cc1ccc2c(c1)C1(c3ccccc3-c3ccccc31)c1cc(C)ccc1N2c1ccc(-c2nc(-c3ccccc3)cc(-c3ccccc3)n2)cc1 reported_endpoint="photoluminescence quantum yield" assay_value=0.87
smi=c1ccc(-c2nc(-c3ccccc3)nc(-c3cc(-n4c5ccccc5c5ccccc54)c(-n4c5ccccc5c5ccccc54)c(-n4c5ccccc5c5ccccc54)c3)n2)cc1 reported_endpoint="photoluminescence quantum yield" assay_value=0.82

Enquiry: Which photoluminescence quantum yield is reported for this compound? c1ccc(-c2nc(-c3ccccc3)nc(-c3ccc(-n4c5ccccc5c5cc6c7ccccc7n7c8ccccc8c(c54)c67)cc3)n2)cc1
Return: 0.68

---

# photoluminescence quantum yield listing for each entry below
experimental-details: photoluminescence quantum yield (fraction); solvent given as SMILES
assay-setup: in CO
Reply briefly: the number, and no unit.

Example cases with answers are listed next.
smi=O=Cc1cc(O)ccc1O assay_value=0.0001
smi=Cc1nc2c(ccc3c2sc(/C=C/C=C/c2ccc(N(C)C)cc2)[n+]3C)s1 assay_value=0.032
smi=CC(C)CCCN1c2ccccc2CCc2ccccc21 assay_value=0.021
smi=CC(C)(C)NC1=C2C=CC=[N+]2[B-](F)(F)n2cccc21 assay_value=0.001
smi=CSc1ccc2c(c1)N(CCCN(C)C)c1ccccc1S2 assay_value=0.003

Enquiry: Which photoluminescence quantum yield is reported for this compound? COC(=O)c1cc(=O)n(C)c2cc(-c3cc4c5c(c3)CCCN5CCC4)sc12
Return: 0.3

---

experimental-details: photoluminescence quantum yield (fraction); solvent given as SMILES
assay-setup: in CC#N
# photoluminescence quantum yield listing for each entry below
Reply briefly: the number, and no unit.

Example cases with answers are listed next.
smi=COc1cc(OC)c2c(c1)C(=O)c1ccc(OC)cc1-2 assay_value=0.0012
smi=COc1cc2c(cc1-c1ccccc1)Cc1c3c(c4c(c1-2)-c1cc(OC)c(-c2ccccc2)cc1C4)C(=O)N(CCC(C)C)C3=O assay_value=0.46
smi=N#C/C(=C\c1ccc(C#N)cc1)c1nc(-c2ccccc2)c(-c2ccccc2)s1 assay_value=0.101
smi=CC(C)(C)Nc1oc(C=Cc2ccccc2)c(C(=O)OC(C)(C)C)c1C(=O)OC(C)(C)C assay_value=0.311

Now examine the next entry.
Enquiry: Which photoluminescence quantum yield is reported for this compound? CCCn1c2cccc3oc4cccc5oc6cccc1c6[c+](c45)c32
Return: 0.49
